Test system: Escherichia coli TOP10;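 note: peptides expressed intracellularly from a pBAD plasmid library in pooled LB shake-flask culture, induced with 0.3% L-arabinose, DNA abundance read by NGS, three biological replicates, DESeq2 with apeglm shrinkage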
measurement_notes: shrunken log2 fold change of peptide-encoding DNA abundance (4.5 h post-induction vs induction); higher = less antimicrobial activity (less host growth inhibition)
assay_setup: time post-induction: 4.5 h; library: site-saturation at positions 5, 18, 19, 20
parameter_measured: shrunken log2 fold change
Number only, no unit.

The reported shrunken log2 fold change of the sequence RRIRVRPPRLPRPRPRPVMIPRP was -0.183

Reported shrunken log2 fold change ( RRIRNRPPRLPRPRPRPWNEPRP ) = -0.233

Input RRIRNRPPRLPRPRPRPEHDPRP . Output shrunken log2 fold change: 0.0627

The measured shrunken log2 fold change associated with RRIRSRPPRLPRPRPRPKDSPRP reads 0.1

The measured shrunken log2 fold change associated with RRIRMRPPRLPRPRPRPGRQPRP reads -0.00182

Measured shrunken log2 fold change of RRIRWRPPRLPRPRPRPGLEPRP : 1.46

Please fill in: shrunken log2 fold change reported for RRIRIRPPRLPRPRPRPKYNPRP = -1.01

// recorded shrunken log2 fold change for RRIRARPPRLPRPRPRPLPYPRP : 0.0356

Just so you know, measured shrunken log2 fold change for RRIRMRPPRLPRPRPRPSSQPRP came out at 0.212

Value of shrunken log2 fold change reported for the sequence RRIRERPPRLPRPRPRPYEPPRP is 0.029

Reported shrunken log2 fold change ( RRIRNRPPRLPRPRPRPIGVPRP ) = 0.249

Noted for RRIRDRPPRLPRPRPRPQSHPRP : its shrunken log2 fold change reads 0.236

// RRIRTRPPRLPRPRPRPPTPPRP : shrunken log2 fold change value = 0.368

Please fill in: shrunken log2 fold change reported for RRIRMRPPRLPRPRPRPWKKPRP = 0.234

The sequence listed as RRIRARPPRLPRPRPRPSASPRP has a reported shrunken log2 fold change of 0.167

Given item RRIRERPPRLPRPRPRPRSLPRP , the value recorded as its shrunken log2 fold change is -0.0254

// recorded shrunken log2 fold change for RRIRYRPPRLPRPRPRPVQLPRP : -0.779

Reported shrunken log2 fold change of RRIRTRPPRLPRPRPRPATWPRP : 0.164

Quick note, shrunken log2 fold change for RRIRVRPPRLPRPRPRPAWMPRP landed at 0.0871

# shrunken log2 fold change of RRIRNRPPRLPRPRPRPKSFPRP = -0.00133

Quick note, shrunken log2 fold change for RRIRLRPPRLPRPRPRPMLIPRP landed at -0.0317

In plain terms, RRIRSRPPRLPRPRPRPIYFPRP has a documented shrunken log2 fold change of -0.397

Form: sequence = RRIRWRPPRLPRPRPRPTDLPRP ; shrunken log2 fold change = 0.0776

Entry RRIRGRPPRLPRPRPRPDAIPRP — recorded shrunken log2 fold change = 1.38

response.value for RRIRTRPPRLPRPRPRPSWNPRP (field: shrunken log2 fold change) = -0.34

The sequence identified as RRIRDRPPRLPRPRPRPDVLPRP registered its shrunken log2 fold change at 0.0169

Per the record, RRIRDRPPRLPRPRPRPLWEPRP has shrunken log2 fold change of 0.0751

// shrunken log2 fold change lookup, sequence = RRIRERPPRLPRPRPRPDQKPRP , result: -0.0097

Sure, the documented shrunken log2 fold change for RRIRRRPPRLPRPRPRPDYDPRP is -0.0449

What the record says about RRIRDRPPRLPRPRPRPDGAPRP : shrunken log2 fold change is 0.657

RRIRYRPPRLPRPRPRPFLCPRP has a reported shrunken log2 fold change of -1.19

The value of shrunken log2 fold change measured for the sequence RRIRRRPPRLPRPRPRPIVTPRP turned out to be 0.0446

Summary for this sequence, RRIRTRPPRLPRPRPRPTSYPRP : shrunken log2 fold change is -0.268

For reference, reported shrunken log2 fold change for RRIRWRPPRLPRPRPRPFEYPRP stands at -0.331

Reported shrunken log2 fold change ( RRIRDRPPRLPRPRPRPVVVPRP ) = 0.328

Measured shrunken log2 fold change of RRIRDRPPRLPRPRPRPKLWPRP : 0.527

Query RRIRPRPPRLPRPRPRPYQLPRP yields shrunken log2 fold change of -0.441

Value of shrunken log2 fold change reported for the sequence RRIRNRPPRLPRPRPRPNGRPRP is -0.00776

Query RRIRVRPPRLPRPRPRPFKNPRP yields shrunken log2 fold change of -0.055

Reported shrunken log2 fold change for RRIRQRPPRLPRPRPRPHRNPRP was 0.116

// shrunken log2 fold change lookup, sequence = RRIRHRPPRLPRPRPRPLGKPRP , result: -0.239

Item: RRIRQRPPRLPRPRPRPAACPRP | shrunken log2 fold change: 0.183

According to the records, this sequence RRIRIRPPRLPRPRPRPARQPRP displays shrunken log2 fold change of -0.0037

Per the record, RRIRWRPPRLPRPRPRPAWWPRP has shrunken log2 fold change of 0.691

So, RRIRFRPPRLPRPRPRPLGSPRP ? Its shrunken log2 fold change was 0.192

Query RRIRPRPPRLPRPRPRPIFVPRP yields shrunken log2 fold change of -0.197

get_value(item= RRIRIRPPRLPRPRPRPWWKPRP , readout=shrunken log2 fold change) returns -0.102

Per the record, RRIRRRPPRLPRPRPRPYLCPRP has shrunken log2 fold change of -0.404

The sequence listed as RRIRQRPPRLPRPRPRPDDIPRP shows shrunken log2 fold change equal to -0.0246

Memo: RRIRERPPRLPRPRPRPLDRPRP , reported shrunken log2 fold change: 0.0551

Lookup result for RRIRPRPPRLPRPRPRPWHKPRP ; measured shrunken log2 fold change: -0.29

Form: sequence = RRIRWRPPRLPRPRPRPCGQPRP ; shrunken log2 fold change = 0.137

Documented shrunken log2 fold change of RRIRIRPPRLPRPRPRPSNRPRP : -0.139

Note to self: shrunken log2 fold change recorded for RRIRLRPPRLPRPRPRPLGSPRP was -0.00618

# shrunken log2 fold change (sequence: RRIRKRPPRLPRPRPRPCKRPRP ) is -0.194

So for RRIRARPPRLPRPRPRPRFTPRP , the logged shrunken log2 fold change turned out to be 0.267

Short answer for RRIRQRPPRLPRPRPRPVAVPRP : shrunken log2 fold change was 0.257

Notebook: RRIRLRPPRLPRPRPRPQYHPRP , shrunken log2 fold change read as -0.895

For RRIRARPPRLPRPRPRPLGNPRP the sequence record lists shrunken log2 fold change as 0.0331

Data point: RRIRGRPPRLPRPRPRPTEKPRP ; shrunken log2 fold change = 0.455

The reported value for RRIRIRPPRLPRPRPRPVACPRP in terms of shrunken log2 fold change is -0.154

Kindly note the recorded shrunken log2 fold change for RRIRIRPPRLPRPRPRPAFAPRP , which is 0.207

Value of measured shrunken log2 fold change for the entry RRIRYRPPRLPRPRPRPQYSPRP : -1.71
